FYI, the data here is from patent US10588952B2.

Protocol Notes: physchem
Condition Info: pH 6
Below, each of the compounds is paired with its reported solubility thermodynamic at 90 min value.
Give a bare numeral; the unit µg/mL is implied.

{"columns": ["Compound", "solubility thermodynamic at 90 min, µg/mL"],
 "data": [
  ["CC[C@H](C)[C@H](NC(=O)[C@H](CCCCN)NC(=O)[C@@H](N)CSSC[C@H](N)C(=O)NCC(=O)N[C@@H](CC(C)C)C(=O)N[C@@H](Cc1ccc(O)cc1)C(=O)N[C@@H](CC(=O)O)C(=O)NCC(=O)N[C@@H](CCSC)C(=O)N[C@@H](CCC(=O)O)C(=O)N[C@@H](Cc1c[nH]cn1)C(=O)N[C@@H](CC(C)C)C(=O)O)C(=O)N[C@@H](Cc1ccccc1)C(=O)NCC(=O)N[C@@H](CO)C(=O)N[C@@H](CC(C)C)C(=O)N[C@@H](C)C(=O)N[C@@H](Cc1ccccc1)C(=O)N[C@@H](CC(C)C)C(=O)O [Example 29]", 170]
]}

Documented solubility thermodynamic at 90 min of CC[C@H](C)[C@H](NC(=O)[C@@H](N)CCCCN)C(=O)N[C@@H](Cc1ccccc1)C(=O)NCC(=O)N[C@@H](CO)C(=O)N[C@@H](CC(C)C)C(=O)N[C@@H](C)C(=O)N[C@@H](Cc1ccccc1)C(=O)N[C@@H](CC(C)C)C(=O)O [SEQ ID NO: 53, reference compound] : 100

###

Reported formation rate of VLQELNVTV (SEQ ID NO: 43) is given for each of the following substances.
Measurement Target: ERAP1 (Homo sapiens, UniProt Q9NZ08)
Sequence (Q9NZ08 whole entry): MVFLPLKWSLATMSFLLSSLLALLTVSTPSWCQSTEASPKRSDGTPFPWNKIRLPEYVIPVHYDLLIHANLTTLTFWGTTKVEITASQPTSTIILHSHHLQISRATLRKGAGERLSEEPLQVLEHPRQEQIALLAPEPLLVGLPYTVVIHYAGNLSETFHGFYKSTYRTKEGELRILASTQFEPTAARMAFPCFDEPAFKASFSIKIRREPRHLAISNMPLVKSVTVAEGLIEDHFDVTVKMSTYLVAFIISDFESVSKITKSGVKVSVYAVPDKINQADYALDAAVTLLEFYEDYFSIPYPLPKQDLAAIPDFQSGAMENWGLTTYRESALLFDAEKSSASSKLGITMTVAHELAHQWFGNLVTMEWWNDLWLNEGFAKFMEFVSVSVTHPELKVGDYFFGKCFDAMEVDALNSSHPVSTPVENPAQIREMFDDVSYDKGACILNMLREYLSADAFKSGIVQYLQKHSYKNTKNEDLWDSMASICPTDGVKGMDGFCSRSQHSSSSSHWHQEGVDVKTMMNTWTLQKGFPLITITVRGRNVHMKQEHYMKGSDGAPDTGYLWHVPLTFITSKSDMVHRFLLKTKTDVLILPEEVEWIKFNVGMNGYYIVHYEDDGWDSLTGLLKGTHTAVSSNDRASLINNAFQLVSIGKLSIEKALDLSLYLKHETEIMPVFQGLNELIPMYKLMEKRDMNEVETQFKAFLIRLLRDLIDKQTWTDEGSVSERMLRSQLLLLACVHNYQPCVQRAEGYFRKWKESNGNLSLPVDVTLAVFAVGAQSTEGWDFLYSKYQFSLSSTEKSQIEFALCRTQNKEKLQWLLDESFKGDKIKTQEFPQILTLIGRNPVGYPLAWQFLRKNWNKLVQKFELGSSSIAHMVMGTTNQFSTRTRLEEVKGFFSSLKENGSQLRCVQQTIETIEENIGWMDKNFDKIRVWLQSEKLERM
Protocol Notes: Test of trimming of N-terminal amino acid by ERAP1 (Experimental Example 11, Examples 50, 56, 64, 67)
Type: biochemical
Condition Info: Proteinase-3 169-177 peptide obtained by ERAP1 trimming; from HPLC AUC
Hi! Could you send only the number? It should be in %, unit omitted.

{"columns": ["Substance", "Observed Result"],
 "data": [
  ["H-SCVLQELNVTV-OH [Example 64]", 1.3],
  ["H-ACVLQELNVTV-OH [Example 50]", 1.8],
  ["H-GCVLQELNVTV-OH [Example 56]", 1.1]
]}

Now consider a different substance.
Case H-YCVLQELNVTV-OH [Example 67] , ERAP1 (Homo sapiens, UniProt Q9NZ08), formation rate of VLQELNVTV (SEQ ID NO: 43) recorded as 0.7

###

# reported solubility thermodynamic at 90 min; entries follow
Protocol Notes: Measurement of solubility in isotonic buffer (Experimental Examples 7 and 8)
Condition Info: pH 7.4

{"columns": ["Substance", "Observed Result"],
 "data": [
  ["H-VYGFVRACL-OH [SEQ ID NO: 87]", "> 1000 µg/mL"]
]}

substance H-GLYDGMEHL-OH [SEQ ID NO: 19] , solubility thermodynamic at 90 min observed: > 1000 µg/mL

###

Measurement Target: ERAP1 (Homo sapiens, UniProt Q9NZ08)
Protocol Notes: Test of trimming of N-terminal amino acid by ERAP1 (Experimental Example 9, Examples 69-84);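 also: peptide incubated with ERAP1 for 1 h before HPLC analysis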
Assay type: biochemical
Condition Info: MAGE-A10 254-262 peptide obtained by ERAP1 trimming; from HPLC AUC
Parameter: formation rate of GLYDGMEHL (SEQ ID NO: 19) (%)
Your answer is read as %, so omit the unit and give the number.

{"columns": ["Substance", "Measurement Target", "Unit Abbrev", "Observed Result"],
 "data": [
  ["H-CHGLYDGMEHL-OH [Example 72]", "ERAP1 (Homo sapiens, UniProt Q9NZ08)", "%", 0.0]
]}

So, H-CYGLYDGMEHL-OH [Example 79] ? Its formation rate of GLYDGMEHL (SEQ ID NO: 19) was 0.0

The reported value for H-CRGLYDGMEHL-OH [Example 81] in terms of formation rate of GLYDGMEHL (SEQ ID NO: 19) is 0.0
